Recorded values, source ChEMBL document CHEMBL1201862.

# Tested on: U-251
# measurement-notes: NCI tumour cell line growth inhibition, 48 h
Activity calls are given as the source filed them. Cut-off read from the data, not from the text of the source: active = GI50 up to about 1.1 µM and inactive = higher.
measured-attribute: GI50

>>> experimental_result("CC(C)N(/C(F)=N\\C(=O)Nc1ccccc1C(F)(F)F)C(C)C")
"43.4 µM (inactive)"

Q: Specify GI50 for NCCC(N)C(=O)O (configuration not stated) and stop.
Result: > 100 µM (inactive)

Q: Report measured GI50; entry is CSC1NC(c2ccccc2)=C(C#N)C(=O)N1C1OCC(OC(C)=O)C(OC(C)=O)C1OC(C)=O (configuration not stated)
Result: > 100 µM (inactive)

----------
Quick list: GI50 per entry.
# System: HL-60
# measurement-notes: NCI tumour cell line growth inhibition, 48 h
Active and inactive are the calls of the source. Cut-off read from the data, not from the text of the source: active = GI50 up to about 1.1 µM and inactive = higher.

A selection of reference data follows.
>>> experimental_result("CC(C)(C)NC(NC(C)(C)C)=C(C(Cl)=C(Cl)Cl)[N+](=O)[O-]")
"> 100 µM (inactive)"
>>> experimental_result("Cc1ccc(S(=O)(=O)Nn2c(S)c(C#N)c(-c3ccc(Cl)cc3)c(C#N)c2=O)cc1")
"23 µM (inactive)"
>>> experimental_result("CCSC1=CC(Cc2ccc(OC)cc2)N(C(=O)OC)C1 (stereo unspecified)")
"21.9 µM (inactive)"
>>> experimental_result("CC(C)(C)C(=O)C(C#N)C(=O)C(C)(C)C")
"> 100 µM (inactive)"
>>> experimental_result("OCCCN=C1CCCCC1")
"> 100 µM (inactive)"

Next, consider the following compound.
Q: Tell me GI50 of O=C(Nc1ccc(Cl)cc1)NS(=O)(=O)c1c(-c2ccccc2)oc2ccccc2c1=O when tested on HL-60.
Result: 61.7 µM (inactive)

----------
# Tested on: OVCAR-5
# measurement-notes: NCI tumour cell line growth inhibition, 48 h
Calls of active or inactive are those of the source. Cut-off read from the data, not from the text of the source: active = GI50 up to about 1.1 µM and inactive = higher.
Recorded measurements of GI50, one per entry

Use these answered entries as a reference point.
>>> experimental_result("NS(=O)(=O)c1ccc(NC(=S)NC=C2C(=O)c3ccccc3C2=O)cc1")
"> 100 µM (inactive)"
>>> experimental_result("CCCCCCCSCC1C(=O)C23C(O)C1CCC2C12COC3(O)C(O)C1C(C)(C)CCC2O (stereo not given)")
"17.5 µM (inactive)"
>>> experimental_result("CN(C)/C=C/c1ccncc1")
"> 100 µM (inactive)"
>>> experimental_result("COc1ccccc1CC(=O)C(O)(C(F)(F)F)C(F)(F)F")
"> 100 µM (inactive)"
>>> experimental_result("CCOC1=C2C(C)(CCC3[C@@]4(C)C=CC(=O)C(C)(C)C4CC(O)[C@@]23C)C(c2ccoc2)C1=O (stereo not given in full)")
"19.2 µM (inactive)"

Q: Provide measured GI50 on OVCAR-5 for COc1ccc(/C=C2\CN(C)CC3=C2OC(N)=C(C#N)C3c2ccc(OC)cc2)cc1 (stereo not given) please.
Result: > 100 µM (inactive)

Q: Please report GI50 with OVCAR-5 for item CCOP(=O)(OCC)/C(C#N)=C\c1ccsc1 .
Result: > 100 µM (inactive)

Q: State the measured GI50 (OVCAR-5) of Cc1ccc(/N=N/C(=N/NC(=O)c2ccccc2)c2ccc(N(CCC#N)CCC#N)cc2C)cc1
Result: > 100 µM (inactive)

Q: GET GI50 | system: OVCAR-5 | item: O=C(O)CCC(NC(=O)c1ccc(Nc2nc3cc(C(F)(F)F)ccc3nc2C(=O)O)cc1)C(=O)O (stereo not given)
Result: > 100 µM (inactive)

Q: With OVCAR-5 as the test system, provide measured GI50 for this compound: O=C1Cc2c(-c3ccc(Cl)cc3)cc(-c3ccccc3)nc2-c2ccccc2N1
Result: 16.2 µM (inactive)

Q: Enter recorded GI50 with OVCAR-5 for O=C(OC1CN2CCC1CC2)N(c1ccccc1)c1ccccc1 (stereo not given) here.
Result: > 100 µM (inactive)

----------
# System: SNB-75
# measurement-notes: NCI tumour cell line growth inhibition, 48 h
Calls of active or inactive are those of the source. Rule as the data show it: active = GI50 up to about 1.1 µM and inactive = higher.
measured-attribute: GI50

>>> experimental_result("CC[S+]([O-])c1c2cc(OC)ccc2nc2ccc(OC)cc12 (stereo not given)")
"21 µM (inactive)"
>>> experimental_result("CCCCCCCCCCCCCCCC(=O)ON1C(=S)NC(C)(c2ccccc2)C1=S (stereo not given)")
"> 100 µM (inactive)"
>>> experimental_result("CC(=O)Nc1ccc2cc3c(nc2n1)c1cccnc1n3S(=O)(=O)c1ccccc1")
"59.6 µM (inactive)"
>>> experimental_result("C=C(CS(=O)(=O)c1ccccc1)C(=O)OCC")
"17.4 µM (inactive)"
>>> experimental_result("CCN(CC)CCN(C(=O)C(C)(C)C)c1ccccc1N")
"> 100 µM (inactive)"

Q: Provide the reported GI50 (system: SNB-75) for CCOC(=O)c1c(NC(=O)c2ccccc2)sc2c1CCCC2
Result: 7.23 µM (inactive)

Q: Give the observed GI50 of CCOC1=C2N=C(Cc3ccc(F)cc3)NC2C(=O)c2ccccc21 (stereo not given) for SNB-75.
Result: 15.7 µM (inactive)

Q: // fetch GI50; item: Cc1ccc(NC(S)=Nc2c(C)n(C)n(-c3ccccc3)c2=O)cc1 ; system: SNB-75
Result: > 100 µM (inactive)

Q: For SNB-75, give the measured GI50 of the entry COc1ccc(N2C(=O)C3C=CC(n4[nH]c(=O)n(Cc5ccccc5)c4=O)CC3C2=O)cc1 (stereo not given)
Result: > 100 µM (inactive)

Q: Provide GI50, system SNB-75, entry CCOc1ccc(/N=C/c2c3ccccc3nc3ccccc23)cc1
Result: 44.8 µM (inactive)

Q: Output reported GI50 of the compound CN1C(=O)C(/C=N/NC(=O)c2cccnc2)C(N)N(C)C1=O (stereo not given) on SNB-75.
Result: > 100 µM (inactive)

Q: Give GI50 for CO[C@@H]1O[C@H](C(=O)c2ccccc2)[C@H]2OC(C)(C)O[C@@H]12 tested on SNB-75.
Result: 96.8 µM (inactive)

Q: For SNB-75, give GI50 of the listed compound: O=C1C2C3C=C4c5ccccc5N(c5ccccc5)C4(C2C(=O)N1c1ccc(Br)cc1)[C@H]1C(=O)N(c2ccc(Br)cc2)C(=O)[C@@H]31 (stereo not given in full)
Result: > 100 µM (inactive)

Q: Report GI50 on SNB-75 for this entry: N#Cc1sc2c(c1OC(=O)c1ccc(Cl)cc1Cl)c(=O)n(-c1ccccc1)c(=S)n2-c1ccccc1
Result: 20.8 µM (inactive)

Q: Send back SNB-75 GI50 of CCCCOC(=O)C(=O)C(CCC(=O)c1ccc(C)cc1)C(=O)C=C(C)C (stereo not given) only.
Result: > 100 µM (inactive)

----------
# System: IGROV-1
# measurement-notes: NCI tumour cell line growth inhibition, 48 h
Active and inactive are the calls of the source. Rule as the data show it: active = GI50 up to about 1.1 µM and inactive = higher.
measured-attribute: GI50

>>> experimental_result("N#CC(NNC(=O)Cc1ccccc1)c1ccccc1O (configuration not stated)")
"21.2 µM (inactive)"
>>> experimental_result("O=C1CC(c2ccccc2)[S+]([O-])c2ccccc2N1 (configuration not stated)")
"> 100 µM (inactive)"
>>> experimental_result("CC(=O)Nc1ccc(-c2nc3ccccc3s2)cc1Cl")
"< 0.0217 µM (active)"
>>> experimental_result("COc1cc(-c2cc(=O)c3c(OC)c(OC)c(OC)c(OC)c3o2)cc(OC)c1OC [HEPATAMETHOXYFLAVONE]")
"52.2 µM (inactive)"
>>> experimental_result("c1cncc(CNCc2cccnc2)c1")
"> 100 µM (inactive)"
>>> experimental_result("Fc1c(F)c(F)c(CSc2nc3ccccc3[nH]2)c(F)c1F")
"> 100 µM (inactive)"

Now consider the entry below.
Q: Assign GI50 to the following record: COc1ccc(/C=C2\CN(C)CC3=C2OC(N)=C(C#N)C3c2ccc(OC)cc2)cc1 (configuration not stated)
Result: 15.9 µM (inactive)

----------
# System: NCI-H460
# measurement-notes: NCI tumour cell line growth inhibition, 48 h
Active and inactive are the calls of the source. Cut-off read from the data, not from the text of the source: active = GI50 up to about 1.1 µM and inactive = higher.
measured-attribute: GI50

>>> experimental_result("COc1cc2c(c(OC)c1OC)C(=O)[C@H](O)[C@H]2NC(N)=O")
"66.8 µM (inactive)"
>>> experimental_result("COc1cc2c3c(c4ccc(OC)c(OC)c4c2cc1OC)CN1CCC[C@@H]1C3")
"0.0392 µM (active)"
>>> experimental_result("COC(=O)C(Cc1ccccc1)NP(=O)(O)OCC1OC(n2cc(Br)c(=O)[nH]c2=O)CC1O (stereo not given)")
"> 100 µM (inactive)"

Q: Lab note: NCI-H460 assay, enter GI50 for Clc1nc(-c2ccccc2)nc(Cl)c1Cl here
Result: 18.7 µM (inactive)

Q: For NCI-H460, give GI50 of the listed compound: O=C(n1c(=O)n(-c2ccc([N+](=O)[O-])cc2)c(=O)n1C(=O)C(Cl)(Cl)Cl)C(Cl)(Cl)Cl
Result: > 100 µM (inactive)
